Known pIC50 of a selection of compounds
# TESTED_TARGET: Excitatory amino acid transporter 3 (Homo sapiens)
# Sequence (P43005 whole entry): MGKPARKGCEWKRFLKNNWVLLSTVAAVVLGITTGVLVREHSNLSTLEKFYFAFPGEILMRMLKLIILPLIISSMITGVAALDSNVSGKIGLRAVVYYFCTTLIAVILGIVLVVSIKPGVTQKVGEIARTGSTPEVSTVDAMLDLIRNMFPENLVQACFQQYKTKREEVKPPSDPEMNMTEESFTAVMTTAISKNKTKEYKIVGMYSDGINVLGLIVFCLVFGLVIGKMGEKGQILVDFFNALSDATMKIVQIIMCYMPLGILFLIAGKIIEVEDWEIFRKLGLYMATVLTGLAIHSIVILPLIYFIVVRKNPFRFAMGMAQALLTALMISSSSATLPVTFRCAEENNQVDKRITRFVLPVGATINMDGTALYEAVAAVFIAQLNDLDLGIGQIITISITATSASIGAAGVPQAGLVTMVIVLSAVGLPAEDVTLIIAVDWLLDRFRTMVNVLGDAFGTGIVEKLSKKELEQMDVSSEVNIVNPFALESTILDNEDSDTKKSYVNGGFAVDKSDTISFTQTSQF
# METHOD_NOTES: Inhibition of [3H]-D-Asp uptake at human EAAT3 expressed in HEK293 cells measured after 3 mins by TopCount method
# Type: cell-based
# CONDITION_CONTEXT: read-out: IC50
pIC50: −log10 of the molar value.

Sample answers from the record:
- COMPOUND: "CN(C(C(=O)O)[C@H](N)C(=O)O)S(=O)(=O)c1ccccc1 (mixture of isomers)"
  TESTED_TARGET: "Excitatory amino acid transporter 3 (Homo sapiens)"
  pIC50: "< 3.52"
- COMPOUND: "N[C@H](C(=O)O)C(C(=O)O)n1cc(-c2ccccc2)nn1 (mixture of isomers)"
  TESTED_TARGET: "Excitatory amino acid transporter 3 (Homo sapiens)"
  pIC50: "< 3.00"

Provide pIC50, system Excitatory amino acid transporter 3 (Homo sapiens), entry N[C@H](C(=O)O)C(NS(=O)(=O)c1c(F)c(F)c(F)c(F)c1F)C(=O)O (single isomer, unassigned; diastereomer 1) < 3.52

###

# TESTED_TARGET: Excitatory amino acid transporter 2 (Homo sapiens, UniProt P43004)
# Sequence (P43004 whole entry): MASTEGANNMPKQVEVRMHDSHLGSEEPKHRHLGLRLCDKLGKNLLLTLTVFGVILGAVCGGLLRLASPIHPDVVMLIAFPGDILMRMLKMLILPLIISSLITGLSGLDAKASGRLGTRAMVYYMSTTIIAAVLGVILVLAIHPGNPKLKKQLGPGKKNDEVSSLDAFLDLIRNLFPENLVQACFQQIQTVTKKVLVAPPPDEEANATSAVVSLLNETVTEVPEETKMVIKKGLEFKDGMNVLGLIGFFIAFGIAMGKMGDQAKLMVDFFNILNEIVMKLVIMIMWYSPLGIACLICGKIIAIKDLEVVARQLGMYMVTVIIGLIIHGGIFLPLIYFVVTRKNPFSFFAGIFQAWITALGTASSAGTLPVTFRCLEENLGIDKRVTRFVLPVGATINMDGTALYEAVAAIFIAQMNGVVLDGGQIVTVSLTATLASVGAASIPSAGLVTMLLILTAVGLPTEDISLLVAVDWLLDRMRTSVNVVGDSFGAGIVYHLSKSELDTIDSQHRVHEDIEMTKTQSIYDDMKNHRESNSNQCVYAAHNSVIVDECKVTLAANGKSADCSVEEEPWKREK
# METHOD_NOTES: Inhibition of [3H]-D-Asp uptake at human EAAT2 expressed in HEK293 cells measured after 3 mins by TopCount method
# Assay type: cell-based
# CONDITION_CONTEXT: read-out: IC50
pIC50: −log10 of the molar value.
METRIC: pIC50

P: CC(C)(C)c1ccc(S(=O)(=O)NC(C(=O)O)[C@H](N)C(=O)O)cc1 (mixture of isomers)
Q: N[C@H](C(=O)O)C(C(=O)O)n1cc(-c2ccccc2)nn1 (mixture of isomers)
Which value of pIC50 is numerically greater: that of P or that of Q ? The response must carry the label of the picked entry. P

A: N[C@H](C(=O)O)[C@H](Cc1ccccc1)C(=O)O
B: N[C@H](C(=O)O)C(NS(=O)(=O)c1cccc2ccccc12)C(=O)O (mixture of isomers)
Which value of pIC50 is numerically greater: that of A or that of B ? The response must carry the label of the picked entry. B
(B: 4.85, A: 4.38)

###

# TESTED_TARGET: Excitatory amino acid transporter 1 (Homo sapiens, UniProt P43003)
# Sequence (P43003 whole entry): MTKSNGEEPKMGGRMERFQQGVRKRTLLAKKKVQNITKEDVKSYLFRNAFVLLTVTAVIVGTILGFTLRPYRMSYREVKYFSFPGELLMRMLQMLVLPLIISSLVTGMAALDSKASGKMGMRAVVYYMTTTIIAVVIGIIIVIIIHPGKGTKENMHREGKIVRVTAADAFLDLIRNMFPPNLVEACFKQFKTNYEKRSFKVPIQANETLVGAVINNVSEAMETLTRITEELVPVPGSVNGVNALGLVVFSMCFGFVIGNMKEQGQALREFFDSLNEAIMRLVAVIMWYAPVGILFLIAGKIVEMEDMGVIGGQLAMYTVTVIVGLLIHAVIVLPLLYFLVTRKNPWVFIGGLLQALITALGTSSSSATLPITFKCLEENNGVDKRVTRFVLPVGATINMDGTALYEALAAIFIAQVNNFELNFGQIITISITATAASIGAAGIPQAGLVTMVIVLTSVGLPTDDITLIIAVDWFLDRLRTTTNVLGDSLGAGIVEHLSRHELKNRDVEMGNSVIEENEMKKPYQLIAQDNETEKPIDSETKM
# METHOD_NOTES: Inhibition of [3H]-D-Asp uptake at human EAAT1 expressed in HEK293 cells measured after 3 mins by TopCount method
# Format: cell-based
# CONDITION_CONTEXT: read-out: IC50
pIC50: −log10 of the molar value.
METRIC: pIC50

Sample answers from the record:
- MOLECULE: "N[C@H](C(=O)O)C(NS(=O)(=O)c1cccc(C(=O)O)c1)C(=O)O (mixture of isomers)"
  VALUE: "< 3.52"
- MOLECULE: "N[C@H](C(=O)O)C(C(=O)O)n1cc(-c2ccccc2)nn1 (mixture of isomers)"
  VALUE: "< 3.00"

# return recorded pIC50 for input CN(C(C(=O)O)[C@H](N)C(=O)O)S(=O)(=O)c1ccccc1 (mixture of isomers) < 3.52

# return recorded pIC50 for input N[C@H](C(=O)O)C(NS(=O)(=O)c1c(F)c(F)c(F)c(F)c1F)C(=O)O (single isomer, unassigned; diastereomer 1) < 3.52
